Numbers sourced from paper PMC10991534.

Target: SbtB (Synechocystis sp. PCC 6803, UniProt P73954, C105A/C110A)
Construct: R-loop Cys105-Cys110
Sequence (P73954 whole entry C105A/C110A): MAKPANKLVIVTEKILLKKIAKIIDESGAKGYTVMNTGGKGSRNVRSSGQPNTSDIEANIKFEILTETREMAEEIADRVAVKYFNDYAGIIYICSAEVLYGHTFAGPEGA
Assay: ITC, one set of sites model
assay metric: Kd (µM)

[[record]]
input_smiles = "Nc1ncnc2c1ncn2[C@@H]1O[C@H](COP(=O)(O)OP(=O)(O)OP(=O)(O)O)[C@@H](O)[C@H]1O"
number = 29.8


====

Target: SbtB (Synechocystis sp. PCC 6803, UniProt P73954, C105S/C110S)
Construct: gene slr1513; R-loop Cys105-Cys110
Sequence (P73954 whole entry C105S/C110S): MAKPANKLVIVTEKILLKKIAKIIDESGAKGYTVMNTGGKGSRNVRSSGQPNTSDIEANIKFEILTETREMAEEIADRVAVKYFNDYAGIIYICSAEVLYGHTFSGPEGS
Assay: ITC, one set of sites model
Assay type: binding
assay metric: Kd (µM)

[[record]]
input_smiles = "Nc1ncnc2c1ncn2[C@@H]1O[C@H](COP(=O)(O)OP(=O)(O)OP(=O)(O)O)[C@@H](O)[C@H]1O"
assay_metric = "Kd"
number = 47.6


====

Molecular target: SbtB-Δ109 (Synechocystis sp. PCC 6803)
Construct: last residue Cys110 deleted, StrepII-tagged, recombinant, trimer
Sequence (P73954 1-109, stated change not applied): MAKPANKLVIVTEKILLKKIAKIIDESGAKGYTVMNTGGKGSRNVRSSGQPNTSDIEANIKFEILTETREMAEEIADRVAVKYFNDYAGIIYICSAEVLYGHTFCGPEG
Assay: ITC, one set of sites model
assay metric: Kd (µM)

[[record]]
input_smiles = "Nc1ncnc2c1ncn2[C@@H]1O[C@H](COP(=O)(O)OP(=O)(O)OP(=O)(O)O)[C@@H](O)[C@H]1O"
assay_metric = "Kd"
quantity_unit = "µM"
number = 32.5


====

Biological target: SbtB (Synechocystis sp. PCC 6803, UniProt P73954, C105S)
Construct: R-loop Cys105-Cys110
Sequence (P73954 whole entry C105S): as the sequence (P73954 whole entry C105A/C110A) above, with A105S, A110C counted along it
Experiment: ITC, one set of sites model
pKd: −log10 of the molar value.
assay metric: pKd

[[record]]
input_smiles = "Nc1ncnc2c1ncn2[C@@H]1O[C@H](COP(=O)(O)OP(=O)(O)OP(=O)(O)O)[C@@H](O)[C@H]1O"
test_system = "SbtB (Synechocystis sp. PCC 6803, UniProt P73954, C105S)"
number = 4.39

